Source of measurements: patent US12077503B2

For each of the molecules below, state its pest or weed control at 15.625 g/ha.
- Tested on: ivy-leaved morning glory (Ipomoea hederacea)
- ASSAY_COMMENT: Test G Post-Emergence Protocol
- Type: in vivo
- APPLIED_CONDITIONS: Ipomoea, post-emergence, 312 h, 15.625 g ai/ha, evaluated after 13 days (100=total damage to plant; 0=no damage to plant), read-out: Morningglory, Ivy-leaved damage rating
- Description: Seeds of corn (Zea mays), giant foxtail (Setaria faberi), barnyardgrass (Echinochloa crus-galli), ivy-leaved morning glory (Ipomoea hederacea), redroot pigweed (Amaranthus retroflexus) and velvetleaf (Abutilon theophrasti) were sown in standard soil in pots. […]
Give the value; after it, write the unit.

Cc1c(F)ccc(NC(=O)[C@@H]2C(=O)N(C)C[C@H]2c2ccc(C(F)(F)F)cc2)c1F (racemic); 20%

Each of the following entries comes with a recorded value; kindly state pest or weed control at 15.625 g/ha for each.
1. CN1C[C@H](c2ccc(C(F)(F)F)cc2)[C@@H](C(=O)Nc2ncccc2[N+](=O)[O-])C1=O (racemic)
2. CN1C[C@H](c2ccc(C(F)(F)F)cc2)[C@@H](C(=O)Nc2nccc(C(F)(F)F)c2F)C1=O (racemic)

Result block:
["0%", "0%"]

Each of the following entries comes with a recorded value; kindly state pest or weed control at 15.625 g/ha for each.
1. CN1C[C@H](c2ccc(C(F)(F)F)cc2)[C@@H](C(=O)Nc2cccc(Cl)c2S(C)(=O)=O)C1=O (racemic)
2. Cc1nc(F)ccc1NC(=O)[C@@H]1C(=O)N(C)C[C@H]1c1ccc(C(F)(F)F)cc1 (racemic)

Result block:
1. 0%
2. 10%

Each of the following entries comes with a recorded value; kindly state pest or weed control at 15.625 g/ha for each.
1. Cc1cnc(NC(=O)[C@@H]2C(=O)N(C)C[C@H]2c2ccc(C(F)(F)F)cc2)nc1 (racemic)
2. CN1C[C@H](c2ccc(C(F)(F)F)cc2)[C@@H](C(=O)Nc2cccnc2S(C)(=O)=O)C1=O (racemic)
3. CCS(=O)(=O)c1ccccc1NC(=O)[C@H]1C(=O)N(C)C[C@@H]1c1ccc(C(F)(F)F)cc1 (racemic)
4. COc1cc(C2CN(C)C(=O)C2C(=O)Nc2cccc(F)c2F)cc(C)c1C (stereo not shown)
5. Cc1cc([C@H]2CN(C)C(=O)[C@@H]2C(=O)Nc2ccc(F)c(F)c2F)cnn1 (racemic)
6. CCOc1cc([C@@H]2CN(C)C(=O)[C@H]2C(=O)Nc2cccc(F)c2C)ccc1C(F)(F)F (racemic)

Result block:
1: 0%; 2: 0%; 3: 0%; 4: 20%; 5: 0%; 6: 50%

---

- Test system: giant foxtail (Setaria faberi)
- ASSAY_COMMENT: Test G Post-Emergence Protocol
- Type: in vivo
- APPLIED_CONDITIONS: Setaria faberi, post-emergence, 312 h, 15.625 g ai/ha, evaluated after 13 days (100=total damage to plant; 0=no damage to plant), read-out: Foxtail, Giant damage rating
PROPERTY_LABEL: pest or weed control at 15.625 g/ha (%)
One number for each entry, in %.

The following compounds have reported results that may help.
Cc1c(F)cccc1NC(=O)[C@@H]1C(=O)N(C)C[C@H]1c1cccc(C(C)(C)O)c1 (racemic); 0
COc1nccc(NC(=O)[C@@H]2C(=O)N(C)C[C@H]2c2ccc(C(F)(F)F)cc2)n1 (racemic); 0
Cc1cc([C@@H]2CN(C)C(=O)[C@H]2C(=O)Nc2cccc(F)c2F)cnc1Cl (racemic); 40

# input for lookup
Query block: Which pest or weed control at 15.625 g/ha value is on record for Cc1ccc(C2CN(C)C(=O)C2C(=O)Nc2cccc(F)c2F)cc1C#N (stereo not shown) ?
Result block: 60
